molecular target: T1, recombinant human sCD4 CF (manufactured by R&D Systems) (human, UniProt P01730 26-390, limits assumed); test: SPR, Biacore T-200, CD4 immobilized on chip, as in Example 2
T1 construct: Immobilized on the Biacore sensor chip; also called recombinant CD4; CD4 antigen
test readout: kon (M⁻¹ s⁻¹)
Could you give me the number in M⁻¹ s⁻¹? Just the number is fine.

Study these solved cases before continuing.
anti-CD4 with barcode 4-5 (VHH, secreted from Pichia pastoris) VHH: EVQLVESGGGSVQPGGSLTLSCGTSGRTFNVMGWFRQAPGKEREFVAAVRWSSTGIYYTQYADSVKSRFTISRDNAKNTVYLEMNSLKPEDTAVYYCAADTYNSNPARWDGYDFRGQGTQVTVSS; 180000
anti-CD4 with barcode 4-8 (VHH, secreted from Pichia pastoris) VHH: EVQLVESGGGSVQPGGSLTLSCGTSGRTFNVMGWFRQAPGKEREFVAAVRWSSTGIYYTQYADSVKSRFTISRDNAKNTVYLEMNSLKPEDTAVYYCAADTYNSNPARWDGYDFRGQGTQVTVSS; 160000
anti-CD4 with barcode 4-2 (VHH, secreted from Pichia pastoris) VHH: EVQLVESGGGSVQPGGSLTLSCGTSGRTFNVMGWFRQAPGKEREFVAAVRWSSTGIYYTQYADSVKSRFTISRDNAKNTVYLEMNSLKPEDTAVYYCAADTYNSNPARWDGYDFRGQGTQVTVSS; 100000
anti-CD4 with barcode 4-7 (VHH, secreted from Pichia pastoris) VHH: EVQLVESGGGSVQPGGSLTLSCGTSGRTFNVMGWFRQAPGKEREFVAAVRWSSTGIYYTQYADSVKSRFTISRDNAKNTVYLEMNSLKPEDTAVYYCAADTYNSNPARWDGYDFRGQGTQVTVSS; 110000

Sample anti-CD4 with barcode 4-4 (VHH, secreted from Pichia pastoris) VHH: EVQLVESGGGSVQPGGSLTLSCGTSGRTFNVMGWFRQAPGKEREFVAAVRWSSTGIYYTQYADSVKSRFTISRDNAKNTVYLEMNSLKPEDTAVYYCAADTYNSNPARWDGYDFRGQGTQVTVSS — what was its kon? 120000
